Data credit: the RNAGym collection of RNA variant scans (doi:10.1093/molbev/msab373)

B1: Azoarcus group I ribozyme (parent)
chain: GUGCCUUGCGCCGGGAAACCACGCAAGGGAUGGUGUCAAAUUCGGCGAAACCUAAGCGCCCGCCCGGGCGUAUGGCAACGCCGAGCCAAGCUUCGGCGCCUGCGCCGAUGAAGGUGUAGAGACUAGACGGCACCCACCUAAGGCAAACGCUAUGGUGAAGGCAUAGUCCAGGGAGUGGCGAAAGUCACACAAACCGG

variants of: B1; assay: reverse-splicing fitness (ratio to wild type); higher = more active; in vitro selection; Mg2+ level not given
metricName: reverse-splicing fitness

# variantDesignation, resultNumber
records = [
    ("C82U A111G A120C A145C C169U U176G", 0.0032),
    ("C82G A120C A145G C150A C169G U176C", 0.0256),
    ("C82A A111C A120G C150A", 0.00933),
    ("C82A A120G A145C C150A C169G", 0.00852),
    ("C82A A111G A120C A145C C150G", 0.00968),
    ("C82A A111C A120G A145G C150A C169A U176C", 0.0231),
    ("C82G A120U A145C C150A C169U U176G", 0.00162),
    ("C82G A111G A145G C169A U176C", 0.0235),
    ("C82G A111G A145G U176G", 0.0821),
    ("A111C A145C C150G C169A U176A", 0.00774),
    ("A111U A120U A145G C150A C169U U176A", 0.00532),
    ("C82A A111G A120C C169U U176G", 0.00535),
]
